Test system: SK-OV-3 ovarian
Experiment: NCI tumour cell line growth inhibition, 48 h
quantity: TGI

>  <compound>
N#CCCN(CCC#N)c1ccc(/C=C2\N=C(c3ccccc3)N(c3ccc(F)cc3)C2=O)cc1

>  <quantity>
TGI

>  <obs value>
> 100 µM

$$$$
>  <compound>
CC(C)(C)c1ccc(OCCOc2ccc(C(C)(C)C)cc2N)c(N)c1

>  <quantity>
TGI

>  <obs value>
> 100 µM

$$$$
>  <compound>
N#CC(N)=Nc1ccccc1

>  <quantity>
TGI

>  <obs value>
> 100 µM

$$$$
>  <compound>
Cn1c(=O)c2[nH]c(N/N=N/c3nncs3)nc2n(C)c1=O

>  <quantity>
TGI

>  <obs value>
> 100 µM

$$$$
>  <compound>
COC(=O)C1(NC(=O)C(CC(=O)OCc2ccccc2)NC(=O)OCc2ccccc2)CCCCCC1 (stereo unspecified)

>  <quantity>
TGI

>  <obs value>
94.6 µM

$$$$
>  <compound>
C=CCc1c(Cl)nc(Cl)nc1Cl

>  <quantity>
TGI

>  <obs value>
9.12 µM

$$$$

---

Entries below carry reported GI50 on UO-31 renal.
quantity: GI50

>  <molecule>
CO/N=C(\COc1ccc2c(c1)[nH]c1ccccc12)c1ccc(OC)cc1

>  <obs value>
> 100000 nM

$$$$
>  <molecule>
Cc1c2cnccc2c(C)c2c1c1cc(C#N)ccc1n2C

>  <obs value>
137 nM

$$$$
>  <molecule>
CCOc1ccccc1CCN=C1NC(=O)/C(=C/c2ccc3ncccc3c2)S1

>  <obs value>
1310 nM

$$$$
>  <molecule>
N#CC(C#N)=C/C=C(\Cl)c1ccc(Cl)cc1

>  <obs value>
14400 nM

$$$$
>  <molecule>
Nc1ncn([C@@H]2S[C@H](CO)[C@@H](O)[C@@H]2F)c(=O)n1

>  <obs value>
372 nM

$$$$
>  <molecule>
c1ccc(C2ONC3=NCCN32)cc1 (stereo unspecified)

>  <obs value>
27300 nM

$$$$

---

Tested on: MALME-3M melanoma
Experiment: NCI tumour cell line growth inhibition, 48 h
quantity: TGI (µM)

>  <input smiles>
N#Cc1c(-c2ccc(Cl)cc2)c2c(nn3c4ccc5ccccc5c4nnc23)[nH]c1=O

>  <quantity>
TGI

>  <result qualifier>
=

>  <obs value>
3.83

$$$$
>  <input smiles>
c1ccc(-c2csc3c4ccccc4c4ccccc4[n+]23)cc1

>  <quantity>
TGI

>  <result qualifier>
=

>  <obs value>
3.21

$$$$
>  <input smiles>
CO/N=C(\COc1ccc2c(c1)[nH]c1ccccc12)c1ccc(OC)cc1

>  <quantity>
TGI

>  <result qualifier>
=

>  <obs value>
74.6

$$$$
>  <input smiles>
O=C(O)CCNS(=O)(=O)c1ccc(NC(=O)c2ccccc2)cc1

>  <quantity>
TGI

>  <result qualifier>
>

>  <obs value>
100

$$$$
>  <input smiles>
COC(=O)[C@H]1C=NN[C@@H]1C(=O)N1[C@H]2CC3CC[C@@]2(CS1(=O)=O)C3(C)C

>  <quantity>
TGI

>  <result qualifier>
>

>  <obs value>
100

$$$$

---

Tested on: M14 melanoma
Assay: NCI tumour cell line growth inhibition, 48 h; in the data active = GI50 below about 0.43 µM; inactive = the rest
Possible outcomes: label 1 for active, label 0 for inactive

>  <compound>
O=C(Nc1cccc(Cl)c1)Nn1cnnc1

>  <discrete label>
label 0

$$$$
>  <compound>
Cc1c2cnccc2c(C)c2c1c1cc(C#N)ccc1n2C

>  <discrete label>
label 1

$$$$
>  <compound>
CCCN1C(=O)NC(=O)C(CC)(N2C(=O)c3c(F)c(F)c(F)c(F)c3C2=O)C1=O (stereo not drawn)

>  <discrete label>
label 0

$$$$
>  <compound>
C/C(=N/O)c1cccc(Nc2cc(-n3nnc4ccccc43)nc3ccccc23)c1

>  <discrete label>
label 0

$$$$
>  <compound>
Cc1ccc2cnc(N)c(C#Cc3cc(C(=O)Nc4ccc(CN5CCN(C)CC5)c(C(F)(F)F)c4)cnc3C)c2c1

>  <discrete label>
label 1

$$$$
>  <compound>
c1ccc(-c2nc(-c3ccccn3)nc(-c3ccccn3)n2)nc1

>  <discrete label>
label 0

$$$$
>  <compound>
CCc1c2c(nc3ccc(OCc4ccc(B(O)O)cc4)cc13)-c1cc3c(c(=O)n1C2)COC(=O)[C@]3(O)CC

>  <discrete label>
label 1

$$$$
>  <compound>
c1cc[c]([Sn][c]2ccccc2)cc1

>  <discrete label>
label 0

$$$$
>  <compound>
CCOC(=O)Oc1c(OC)cc(C(=O)c2ccc(OC)c(O)c2OC)cc1OC

>  <discrete label>
label 1

$$$$
>  <compound>
CC(CO)Nc1cc(-c2[nH]c3cccnc3c2-c2ccc(F)cc2)ccn1 (stereo not drawn)

>  <discrete label>
label 0

$$$$
>  <compound>
CCSC1=NC2C(N(CC)C(=O)N2CC)N1/N=C/C=C/c1ccccc1[N+](=O)[O-] (stereo not drawn)

>  <discrete label>
label 1

$$$$
>  <compound>
CC[O-].CC[O-].O=C([CH-]C(=O)c1ccccc1)CCCCCCCCC(=O)[CH-]C(=O)c1ccccc1.[Ti+4]

>  <discrete label>
label 0

$$$$
>  <compound>
CCOc1ccccc1CCN=C1NC(=O)/C(=C/c2ccc3ncccc3c2)S1

>  <discrete label>
label 0

$$$$

---

Let's look at some molecules and their measured TGI.
Tested on: CAKI-1 renal
Test: NCI tumour cell line growth inhibition, 48 h

>  <molecule>
CCOC(=O)Cc1nc2ccc3c(c2[nH]c1=O)C(=O)c1ccccc1C3=O

>  <TGI>
> 100 µM

$$$$
>  <molecule>
O=C(COc1ccccc1Cl)N1N=C(c2ccc(Cl)cc2)CC1(O)c1ccccc1 (centres undefined)

>  <TGI>
> 100 µM

$$$$
>  <molecule>
COc1cccc(-c2nc3cc(NC(=O)c4ccc(Cl)c(C#N)c4)ccc3o2)c1

>  <TGI>
> 100 µM

$$$$
>  <molecule>
O=C(Nc1ccc(N2C(=O)CSC2c2ccccc2O)cc1)c1ccc(N2C(=O)CSC2c2ccccc2O)cc1 (centres undefined)

>  <TGI>
> 100 µM

$$$$
>  <molecule>
C[C@@H]1OC(=O)C[C@H]2CC(=O)N(CCC3CN(C(=O)OCc4ccccc4)c4ccccc43)C[C@@H]21 (some centres undefined)

>  <TGI>
> 100 µM

$$$$
>  <molecule>
CN(C)CC(O)c1ccc(Cl)c2ccccc12 (centres undefined)

>  <TGI>
> 96.6 µM

$$$$
>  <molecule>
CCc1n[nH]c(=O)n1CCCCCCCCCCCCn1c(CC)n[nH]c1=O

>  <TGI>
> 100 µM

$$$$
>  <molecule>
C/C=C/C(C#N)O[Si](C)(C)C (centres undefined)

>  <TGI>
> 100 µM

$$$$
>  <molecule>
CC(=O)O[C@H]1CC(C)(C)C(=C=C/C(C)=C/C=C/C=C/C=C(C)/C=C2C=C(/C=C/[C@@]34O[C@]3(C)C[C@@H](O)CC4(C)C)C(=O)O/2)[C@](C)(O)C1

>  <TGI>
98.1 µM

$$$$

---

Tested on: HL-60(TB) leukemia
Assay: NCI tumour cell line growth inhibition, 48 h
Let's look at some compounds and their measured TGI.

>  <compound>
NC(=O)Nc1c(Cl)cc(S(N)(=O)=O)cc1Cl

>  <measured on>
HL-60(TB) leukemia

>  <readout unit>
µM

>  <result qualifier>
>

>  <TGI>
100

$$$$
>  <compound>
O=C(O)c1nc(NCc2nc3cc(Cl)ccc3o2)n[nH]1

>  <measured on>
HL-60(TB) leukemia

>  <readout unit>
µM

>  <result qualifier>
>

>  <TGI>
100

$$$$
>  <compound>
Cc1ccc(Nc2nc3[nH]ccc3c(=O)[nH]2)cc1

>  <measured on>
HL-60(TB) leukemia

>  <readout unit>
µM

>  <result qualifier>
>

>  <TGI>
100

$$$$
>  <compound>
O=C(c1ccc2ccccc2c1)c1c(C(F)(F)F)n([O-])c2ccc(C(F)(F)F)cc2[n+]1=O

>  <measured on>
HL-60(TB) leukemia

>  <readout unit>
µM

>  <result qualifier>
=

>  <TGI>
2.2

$$$$
>  <compound>
COc1cc(/C=C2\C(=O)N(c3cccc([N+](=O)[O-])c3)C(c3ccccc3)S2(=O)=O)cc(OC)c1OC (stereo unspecified)

>  <measured on>
HL-60(TB) leukemia

>  <readout unit>
µM

>  <result qualifier>
>

>  <TGI>
100

$$$$
>  <compound>
CCc1cccc(C)c1NS(=O)(=O)c1ccccc1

>  <measured on>
HL-60(TB) leukemia

>  <readout unit>
µM

>  <result qualifier>
>

>  <TGI>
100

$$$$
>  <compound>
FC(F)(F)c1cccc(-c2nc3nc(Cl)c(Cl)nc3[nH]2)c1

>  <measured on>
HL-60(TB) leukemia

>  <readout unit>
µM

>  <result qualifier>
=

>  <TGI>
4.7

$$$$
>  <compound>
O=[N+]([O-])c1ccccc1OCCOc1ccccc1[N+](=O)[O-]

>  <measured on>
HL-60(TB) leukemia

>  <readout unit>
µM

>  <result qualifier>
>

>  <TGI>
100

$$$$
>  <compound>
Cc1cc([NH-])c([NH-])cc1C.[Cl][Pt+2][Cl]

>  <measured on>
HL-60(TB) leukemia

>  <readout unit>
µM

>  <result qualifier>
=

>  <TGI>
75.4

$$$$
>  <compound>
Nc1ncn([C@@H]2S[C@H](CO)[C@@H](O)[C@@H]2F)c(=O)n1

>  <measured on>
HL-60(TB) leukemia

>  <readout unit>
µM

>  <result qualifier>
>

>  <TGI>
31.5

$$$$
>  <compound>
O=c1oc2ccccc2c2c1Sc1ccccc1N2

>  <measured on>
HL-60(TB) leukemia

>  <readout unit>
µM

>  <result qualifier>
>

>  <TGI>
100

$$$$
>  <compound>
O=S(=O)(/N=c1\scc(-c2ccccc2)n1-c1ccccc1)c1ccc(N2N=C3c4ccccc4CC3C2c2ccc(Cl)cc2)cc1 (stereo unspecified)

>  <measured on>
HL-60(TB) leukemia

>  <readout unit>
µM

>  <result qualifier>
=

>  <TGI>
69

$$$$
>  <compound>
Oc1cccc(Nc2nc3ccccc3c3occc23)c1

>  <measured on>
HL-60(TB) leukemia

>  <readout unit>
µM

>  <result qualifier>
=

>  <TGI>
61.7

$$$$
>  <compound>
CC12CCC(CC(=O)/C1=C(/Br)I)C2(C)C (stereo unspecified)

>  <measured on>
HL-60(TB) leukemia

>  <readout unit>
µM

>  <result qualifier>
=

>  <TGI>
12

$$$$
>  <compound>
CC1=C2C(=C[C@@](C)(CO)[C@@H]2OC(=O)N(C)CCN(C)C(=O)OC(C)(C)C)C(=O)[C@](C)(O)C12CC2

>  <measured on>
HL-60(TB) leukemia

>  <readout unit>
µM

>  <result qualifier>
=

>  <TGI>
46.4

$$$$
>  <compound>
COC(=O)C1=CO[C@@H](OC2CC(CO)C(O)C(O)C2O)[C@@H]2[C@@H](C)[C@@H](OC(=O)/C=C/c3ccccc3)[C@@H](O)[C@H]12 (stereo partly specified) (tested in a mixture with another compound)

>  <measured on>
HL-60(TB) leukemia

>  <readout unit>
µM

>  <result qualifier>
>

>  <TGI>
100

$$$$

The origin of these recorded values is PubChem BioAssay (NCI).
